test: chemical genetic growth profiling, strain panel (AID 1159580);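 also: tested at 20 µM; growth read once vehicle control cultures reached saturation at 30 °C; 1 = growth at the plate median or of vehicle wells; lower values mean less growth of the strain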
conditions: S. cerevisiae deletion strains, growth OD, locus YNL067W, strain RPL9B, hits give low values
Screen size: about 5,500 compounds; about 2,000 (36%) were called active. Inconclusive results (about 18%) are left out. This is one part of the list.

compound: CCOC(=O)CCCCCCCCCCCCC1C=CCC1 (stereo not given)
normalized growth: 0.0497 (active)
--
compound: O=C1O[C@@H](CO)[C@H](O)[C@@H](O)[C@@H]1O
normalized growth: 0.994 (inactive)
--
compound: CC12CCCC(O)(C1)C1CC(C)(C)C1CC2 (stereo not given)
normalized growth: 1.02 (inactive)
--
compound: S=c1[nH]c2ccccc2s1
normalized growth: 0.992 (inactive)
--
compound: c1ccc2[nH]c(-c3cscn3)nc2c1
normalized growth: 0.961 (inactive)
--
compound: CC[C@@H](C(=O)[C@@H](C)[C@@H](O)[C@H](C)[C@@H]1O[C@@H]([C@@H](CC)C(=O)O)CC[C@@H]1C)[C@H]1OC2(C=C[C@@H](O)[C@]3(CC[C@@](C)([C@H]4CC[C@](O)(CC)[C@H](C)O4)O3)O2)[C@H](C)C[C@@H]1C (stereo not given in full)
normalized growth: 0.963 (inactive)
--
compound: CC1(C)CC2C1CCC1(C)OC2(C)CCC1O (stereo not given)
normalized growth: 1.04 (inactive)
--
compound: COc1c(C(=O)O)ccc2c1CCC(C)(C)O2
normalized growth: 0.992 (inactive)
--
compound: COc1c(C2COc3cc4c(cc3C2=O)CC(O)C(C)(C)O4)ccc2c1CCC(C)(C)O2 (stereo not given)
normalized growth: 1.01 (inactive)
--
compound: C[C@](N)(Cc1ccc(O)c(O)c1)C(=O)O
normalized growth: 0.979 (inactive)
